- target.or.system: DC-SIGN CRD (Homo sapiens)
- Construct: with the DC-SIGN CRD were performed at a receptor concentration of 50 μM
- assay.remarks: 19F R2-filtered NMR reporter displacement assay with DC-SIGN
- condition.description: 19F R2-filtered NMR, DC-SIGN CRD, pH 7.0, 25 °C
Parameter: Ki. Scope: all listed entries.
parameter: Ki (mM)

>>> numeric_readout("CC(=O)NCCO[C@H]1O[C@H](CO)[C@@H](O)[C@H](O)[C@@H]1O")
2.7
>>> numeric_readout("Cc1ccc(S(=O)(=O)N[C@H]2C(O)O[C@H](CO)[C@@H](O)[C@@H]2O)cc1 (stereo partly shown)")
17
>>> numeric_readout("OC[C@H]1OC(O)[C@@H](O)[C@@H](O)[C@@H]1O (stereo partly shown)")
3
>>> numeric_readout("CC(=O)NCCO[C@@H]1O[C@H](CO)[C@@H](O)[C@H](O)[C@H]1NS(=O)(=O)c1ccc(C)cc1")
15

----------
- target.or.system: Langerin extracellular domain (ECD) (Homo sapiens, UniProt Q9UJ71)
- Construct: the trimeric Langerin extracellular domain (ECD) was expressed insolubly in E; made in house
- Sequence (Q9UJ71 65-328 limits assumed): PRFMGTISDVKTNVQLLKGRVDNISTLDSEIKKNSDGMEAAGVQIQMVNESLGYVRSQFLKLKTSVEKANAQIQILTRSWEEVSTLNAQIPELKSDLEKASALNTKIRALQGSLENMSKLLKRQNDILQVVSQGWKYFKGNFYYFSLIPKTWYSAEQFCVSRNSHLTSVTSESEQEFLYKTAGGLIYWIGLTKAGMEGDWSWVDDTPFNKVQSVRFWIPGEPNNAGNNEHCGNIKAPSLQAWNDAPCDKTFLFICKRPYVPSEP
- assay.remarks: 19F R2-filtered NMR reporter displacement assay with Langerin
- Type: binding
- condition.description: calculated utilizing the KI value determined for GlcNAc
Parameter: Relative potency, Langerin. Scope: all listed entries.
parameter: Relative potency, Langerin

>>> numeric_readout("OC[C@H]1OC(O)[C@H](O)[C@@H](O)[C@@H]1O (stereo partly drawn)")
0.20
>>> numeric_readout("Cc1ccc(S(=O)(=O)N[C@H]2C(O)O[C@H](CO)[C@@H](O)[C@@H]2O)cc1 (stereo partly drawn)")
13
>>> numeric_readout("CC(=O)N[C@@H]1[C@@H](O)[C@H](O)[C@@H](CO)O[C@H]1O")
1.0
>>> numeric_readout("CC(=O)N[C@H]1C(O)O[C@H](COS(=O)(=O)O)[C@@H](O)[C@@H]1O (stereo partly drawn) [GlcNAc-6-OS, N-acetyl glucosamine-6-sulfate]")
6.8
>>> numeric_readout("O=S(=O)(O)N[C@H]1C(O)O[C@H](CO)[C@@H](O)[C@@H]1O (stereo partly drawn) [GlcNS, glucosamine-2-sulfate]")
2.9
>>> numeric_readout("O=S(=O)(O)N[C@H]1C(O)O[C@H](COS(=O)(=O)O)[C@@H](O)[C@@H]1O (stereo partly drawn) [GlcNS-6-OS, glucosamine-2-sulfate-6-sulfate]")
14

----------
- target.or.system: Langerin CRD (Homo sapiens)
- Construct: made in house
- Sequence (Q9UJ71 202-320 limits assumed): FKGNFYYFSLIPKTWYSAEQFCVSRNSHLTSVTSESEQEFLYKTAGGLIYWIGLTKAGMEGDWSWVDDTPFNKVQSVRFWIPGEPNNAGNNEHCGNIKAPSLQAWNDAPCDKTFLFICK
- assay.remarks: 15N HSQC NMR titration, KD determination
- Assay type: binding
- condition.description: from integrals V of resonances in slow exchange, read-out: KD, Langerin (KD,slow)
Parameter: Kd. Scope: all listed entries.
parameter: Kd (µM)

>>> numeric_readout("CC(=O)NCCO[C@@H]1O[C@H](CO)[C@@H](O)[C@H](O)[C@H]1NS(=O)(=O)c1ccc(C)cc1 [compound 16]")
300
>>> numeric_readout("Cc1ccc(S(=O)(=O)N[C@H]2C(O)O[C@H](CO)[C@@H](O)[C@@H]2O)cc1 (some centres unmarked) [compound 2]")
500

----------
- target.or.system: DC-SIGN CRD (Homo sapiens)
- Construct: with the DC-SIGN CRD were performed at a receptor concentration of 50 μM; made in house
- Sequence (Q9NNX6 263-378 limits assumed): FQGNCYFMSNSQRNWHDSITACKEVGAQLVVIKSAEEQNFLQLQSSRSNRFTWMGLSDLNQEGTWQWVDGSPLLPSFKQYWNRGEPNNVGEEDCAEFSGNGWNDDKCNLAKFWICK
- assay.remarks: 19F R2-filtered NMR reporter displacement assay with DC-SIGN
- Type: binding
- condition.description: Table 1, Langerin against DC-SIGN, from KI values
parameter: specificity

>>> numeric_readout("OC[C@H]1OC(O)[C@@H](O)[C@@H](O)[C@@H]1O (stereo partly shown)")
0.67
>>> numeric_readout("CC(=O)NCCO[C@H]1O[C@H](CO)[C@@H](O)[C@H](O)[C@@H]1O")
0.27
>>> numeric_readout("CC(=O)NCCO[C@@H]1O[C@H](CO)[C@@H](O)[C@H](O)[C@H]1NS(=O)(=O)c1ccc(C)cc1")
63
>>> numeric_readout("Cc1ccc(S(=O)(=O)N[C@H]2C(O)O[C@H](CO)[C@@H](O)[C@@H]2O)cc1 (stereo partly shown)")
53

Each recorded value in this set is attributed to paper PMC6535779.
